Quick reference for abundance fitness among some variants
B1: Tudor domain-containing protein 3, residues 554 to 611; numbered along this chain, Q9H7E2 (parent)
chain: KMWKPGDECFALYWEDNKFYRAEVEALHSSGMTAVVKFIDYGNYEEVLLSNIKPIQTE

Variants of: B1
Test Protocol: abundance fitness (aPCA) (normalised: wild type 0, dead -1); higher = more abundant; growth selection in yeast, the domain comes from the species named
Measurement Context: Homo sapiens
Lab note: record just the number, no unit beside it.

- Changes: "G31Y"
  abundance fitness: -0.269
- Changes: "D16R"
  abundance fitness: -0.308
- Changes: "M2S"
  abundance fitness: -0.009
- Changes: "A26V"
  abundance fitness: -0.128
- Changes: "K53I"
  abundance fitness: -0.145

In: Recorded abundance fitness for `E23Q` , please?
Out: -0.103

In: Field request: abundance fitness | item: `D16G`
Out: -0.89

In: # get_value(readout='abundance fitness', item= `F10A` )
Out: -0.178

In: So what's the measured abundance fitness for this one? `F19W`
Out: -0.008
